Measured values drawn from patent US20250160330A1 for this set.

Examples of molecules with documented mortality at 200 ppm follow.
Tested on: cotton worm (Spodoptera litura)
method.summary: Test method 1: foliar spray on cabbage seedling, cotton worm larvae
Format: in vivo
cond: 144 h, read-out: mortality of insects

molecule	mortality at 200 ppm
CC1CC(=O)[C@@H]2[C@@H](C1)[C@]1(C)C[C@@]34OC(=O)C[C@@](C)([C@H]1C(=O)[C@@H]2C)[C@]3(C)CC[C@]12C[C@@H](C)C[C@H](CN14)O2 (stereo partly drawn)	≥ 80%
CC1=CC(=O)[C@H]2CC(=O)[C@H]3[C@](C)([C@@H]2C1)[C@H](Cl)[C@@]12OC(=O)C[C@]3(C)[C@]1(C)CC[C@]13C[C@@H](C)C[C@H](CN12)O3	≥ 80%
C[C@@H]1CC(=O)[C@H]2CC(=O)[C@H]3[C@@](C)(C[C@@]45OC(=O)C[C@]3(C)[C@]4(C)CC[C@]34C[C@@H](C)C[C@H](CN35)O4)[C@@H]2C1	≥ 80%

###

System: cotton aphids (Aphis gossypii)
method.summary: Test method 3: foliar spray on cucumber seedling infested with cotton aphids
cond: read-out: mortality of insects
endpoint.name: mortality at 200 ppm

molecule	result
Cc1cc(O)c2c(c1)[C@]1(C)C[C@@]34OC(=O)C[C@@](C)([C@H]1C(=O)[C@@H]2C)[C@]3(C)CC[C@@]12C[C@@H](C)C[C@H](CN14)O2	≥ 90%
CC1=CC(=O)[C@@H]2[C@@H](C1)[C@]1(C)C[C@H]3N4C[C@H]5C[C@H](C)C[C@]4(CC[C@@]3(C)[C@@](C)(CC(=O)O)[C@H]1C(=O)[C@@H]2C)O5	≥ 90%
COC(=O)C[C@@]1(C)[C@H]2C(=O)CC3C(=O)CC(C)CC3[C@]2(C)C=C2N3C[C@H]4C[C@H](C)C[C@]3(CC[C@]21C)O4 (stereo partly shown)	≥ 90%
Cc1cc(O)c2c(c1)[C@]1(C)C[C@@]34OC(=O)C[C@@](C)([C@H]1C(=O)C2)[C@]3(C)CC[C@]12C[C@@H](C)C[C@H](CN14)O2	≥ 90%
C[C@@H]1CC(=O)[C@H]2CC(=O)[C@H]3[C@@](C)(C[C@@]45OC(=O)C[C@]3(C)[C@]4(C)CC[C@]34C[C@@H](C)C[C@H](CN35)O4)[C@@H]2C1	≥ 90%
CC1CC(=O)C2CC(=O)[C@H]3[C@@](C)(CC4=[N+]5C[C@H]6C[C@H](C)C[C@]5(CC[C@@]4(C)[C@@]3(C)CC(=O)O)O6)C2C1 (stereo partly shown)	≥ 90%
CC1=CC(=O)[C@@H]2[C@@H](C1)[C@@]1(C)[C@H](C(=O)[C@@H]2C)[C@]2(C)CC(=O)O[C@@]3([C@H]1Cl)N1C[C@H]4C[C@H](C)C[C@]1(CC[C@@]23C)O4	≥ 90%
COC(=O)C[C@@]1(C)[C@H]2C(=O)C[C@@H]3C(=O)C=C(C)C[C@H]3[C@]2(C)C=C2N3C[C@H]4C[C@H](C)C[C@]3(CC[C@]21C)O4	≥ 90%
CC(=O)Oc1cc(C)cc2c1CC(=O)[C@H]1[C@@]2(C)C[C@@]23OC(=O)C[C@]1(C)[C@]2(C)CC[C@]12C[C@@H](C)C[C@H](CN13)O2	≥ 90%
CC1=CC(=O)[C@@H]2[C@@H](C1)[C@]1(C)C[C@@]34OC(=O)C[C@@](C)([C@H]1C(=O)[C@@H]2CO)[C@]3(C)CCC12C[C@@H](C)C[C@H](CN14)O2	≥ 90%

###

Examples of molecules with documented mortality at 200 ppm follow.
System: cotton worm (Spodoptera litura)
method.summary: Test method 1: foliar spray on cabbage seedling, cotton worm larvae
Format: in vivo
cond: 144 h, read-out: mortality of insects

molecule	experimental.target	mortality at 200 ppm
CC1=CC(=O)[C@@H]2[C@@H](C1)[C@]1(C)C[C@@]34OC(=O)C[C@@](C)([C@H]1C(=O)[C@@H]2CO)[C@]3(C)CCC12C[C@@H](C)C[C@H](CN14)O2 [A-1]	cotton worm (Spodoptera litura)	≥ 80%
CC[C@H]1C(=O)[C@H]2[C@@](C)(C[C@@]34OC(=O)C[C@]2(C)[C@]3(C)CC[C@]23C[C@@H](C)C[C@H](CN24)O3)[C@@H]2CC(C)=CC(=O)[C@H]21 [AA-3]	cotton worm (Spodoptera litura)	≥ 80%
CC1=CC(=O)[C@@H]2[C@@H](C1)[C@]1(C)CC3N4C[C@H](O)C[C@H](C)C[C@@H]4CC[C@@]3(C)[C@@](C)(CC(=O)O)[C@H]1C(=O)[C@@H]2C (stereo partly drawn) [GG-3]	cotton worm (Spodoptera litura)	≥ 80%
